# target.system: 2,3-epoxysqualene-lanosterol-cyclase (Rattus norvegicus)
# Construct: Measuring the in-vivo Activity in the Rat after Oral Administration; from tissue; host or cells: living rat; 2,3-epoxysqualene measured in the liver
# Sequence (P48450 1-733): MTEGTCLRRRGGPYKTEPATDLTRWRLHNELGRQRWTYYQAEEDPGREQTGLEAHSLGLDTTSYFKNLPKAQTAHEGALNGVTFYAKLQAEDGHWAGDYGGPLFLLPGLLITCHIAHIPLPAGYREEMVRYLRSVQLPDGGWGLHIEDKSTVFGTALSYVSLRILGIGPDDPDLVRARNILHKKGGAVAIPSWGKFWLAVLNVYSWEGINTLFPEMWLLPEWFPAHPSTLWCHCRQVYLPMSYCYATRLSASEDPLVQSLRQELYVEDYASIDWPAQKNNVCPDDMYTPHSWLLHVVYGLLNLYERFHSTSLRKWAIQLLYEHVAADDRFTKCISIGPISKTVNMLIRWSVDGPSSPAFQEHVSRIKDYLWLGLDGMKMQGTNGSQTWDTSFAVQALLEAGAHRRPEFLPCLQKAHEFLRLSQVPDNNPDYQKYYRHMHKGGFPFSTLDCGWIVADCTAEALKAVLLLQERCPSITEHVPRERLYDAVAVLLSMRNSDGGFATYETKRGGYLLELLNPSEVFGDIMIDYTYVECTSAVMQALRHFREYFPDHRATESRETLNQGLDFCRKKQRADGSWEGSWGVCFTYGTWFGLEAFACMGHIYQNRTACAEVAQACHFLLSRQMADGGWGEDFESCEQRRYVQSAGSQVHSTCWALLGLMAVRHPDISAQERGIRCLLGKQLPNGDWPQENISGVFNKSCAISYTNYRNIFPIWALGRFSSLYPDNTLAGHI
# procedure.summary: In-vivo activity in the rat after oral administration: 2,3-epoxysqualene level in the liver
# condition.info: 0.01 mg/kg oral, 3 h after administration
outcome.measure: 2,3-epoxysqualene concentration in the liver (rat) (µg/g)
Give bare numbers, in µg/g.

As a guide, the following entries are already answered.
smiles	endpoint.result
CN(C)Cc1ccc([C@H]2CC[C@H](N(C)C(=S)SCc3ccc(F)cc3)CC2)cc1.Cl	0.0
CN(C)Cc1ccc([C@H]2CC[C@H](N(C)C(=O)Oc3ccc(F)cc3)CC2)cc1.Cl	5.1
CN(C)Cc1ccc([C@H]2CC[C@H](N(C)C(=O)Oc3ccc(Cl)cc3)CC2)cc1.Cl	20.3
CN(C)Cc1ccc([C@H]2CC[C@H](N(C)C(=S)Oc3ccc(Cl)cc3)CC2)cc1.Cl	5.2
CN(C)Cc1ccc([C@H]2CC[C@H](N(C)C(=S)Sc3ccc(Cl)cc3)CC2)cc1	0.0

Consider the additional molecule presented here.
// 2,3-epoxysqualene concentration in the liver (rat) lookup, key: `CN(C)Cc1ccc([C@H]2CC[C@H](N(C)C(=O)Sc3ccc(Cl)cc3)CC2)cc1.Cl`
2.9

###

I'd be grateful if you could share measured 2,3-epoxysqualene concentration in the liver (rat) for these entries.
# target.system: 2,3-epoxysqualene-lanosterol-cyclase (Rattus norvegicus)
# Construct: Measuring the in-vivo Activity in the Rat after Oral Administration; from tissue; host or cells: living rat; 2,3-epoxysqualene measured in the liver
# procedure.summary: In-vivo activity in the rat after oral administration: 2,3-epoxysqualene level in the liver
# condition.info: 0.01 mg/kg oral, 8 h after administration
Numbers only, in µg/g.

molecule	unit.info	endpoint.result
CN(C)Cc1ccc([C@H]2CC[C@H](N(C)C(=S)Oc3ccc(Cl)cc3)CC2)cc1.Cl [G]	µg/g	30.1
CN(C)Cc1ccc([C@H]2CC[C@H](N(C)C(=S)SCc3ccc(F)cc3)CC2)cc1.Cl [C]	µg/g	84.8

Return reported 2,3-epoxysqualene concentration in the liver (rat) values for all items listed beneath this line.
1. CN(C)Cc1ccc([C@H]2CC[C@H](N(C)C(=S)Sc3ccc(Cl)cc3)CC2)cc1 [A]
2. CN(C)Cc1ccc([C@H]2CC[C@H](N(C)C(=O)Sc3ccc(Cl)cc3)CC2)cc1.Cl [H]
3. CN(C)Cc1ccc([C@H]2CC[C@H](N(C)C(=O)Oc3ccc(Cl)cc3)CC2)cc1.Cl [E]
4. CN(C)Cc1ccc([C@H]2CC[C@H](N(C)C(=O)Oc3ccc(F)cc3)CC2)cc1.Cl [R]

[14.6, 31.3, 32.7, 25.6]
